tested system: UniProt P05177
Sequence (P05177 2-516 limits assumed): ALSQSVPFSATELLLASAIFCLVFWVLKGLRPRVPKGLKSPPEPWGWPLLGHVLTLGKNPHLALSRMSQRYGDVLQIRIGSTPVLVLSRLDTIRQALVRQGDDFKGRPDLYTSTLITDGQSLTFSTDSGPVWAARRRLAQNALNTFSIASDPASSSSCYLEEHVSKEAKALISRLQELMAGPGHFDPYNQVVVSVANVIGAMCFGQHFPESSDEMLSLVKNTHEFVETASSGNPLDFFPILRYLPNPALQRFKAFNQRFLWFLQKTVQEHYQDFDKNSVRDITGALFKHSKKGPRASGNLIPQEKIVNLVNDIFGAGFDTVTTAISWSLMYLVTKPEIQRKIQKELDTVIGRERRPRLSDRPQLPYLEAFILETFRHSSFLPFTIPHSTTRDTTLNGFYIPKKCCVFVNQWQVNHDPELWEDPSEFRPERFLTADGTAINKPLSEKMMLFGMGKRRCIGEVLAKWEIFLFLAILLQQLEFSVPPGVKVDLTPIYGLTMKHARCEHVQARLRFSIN
metric name: pKi
Give only the number. pKi is defined as minus log10 of concentration in molar units.

I would be grateful if you could share the reported pKi for "C[C@H](N)C(=O)c1ccccc1" .
4.24
